protocol summary: Drug level in plasma of FAK expressing human CWR22 cells xenografted Nu/Nu mouse at 55 mg/kg, po administered as single dose measured at 24 hrs by LC-MS/MS analysis
Format: ADME, organism-based
outcome measure: concentration at 24 h (ng/mL)
I only need the number, in ng/mL, no unit after it.

Query block: Quick one: concentration at 24 h of "CNC(=O)c1ccccc1Nc1nc(Nc2ccc3c(c2OC)CCC[C@H](N2CCN(CCO)CC2)C3)ncc1Cl" ?
Result block: 1190

###

protocol summary: AUC (0 to 48 hrs) in Sprague-Dawley rat brain at 30 mg/kg, po by LC/MS/MS analysis
Assay type: ADME, organism-based
Set-up: dose 30 mg/kg, time < 48 hr, route oral
outcome measure: AUC(0-t) at 48 h (ng·h/mL)
Only the number, expressed in ng·h/mL, is required.

Query block: Reported AUC(0-t) at 48 h, molecule "CNC(=O)c1ccccc1Nc1nc(Nc2ccc3c(c2OC)CCC[C@H](N2CCN(CCO)CC2)C3)ncc1Cl" : ____
Result block: 61600

###

protocol summary: Drug level in plasma of NPM-ALK expressing human SUP-M2 cells xenografted mouse at 30 mg/kg, po administered as single dose measured at 2 hrs by LC-MS/MS analysis
Assay type: ADME, organism-based
outcome measure: concentration at 2 h (ng/mL)
Return type: number; implicit unit ng/mL.

Query block: Entry under review: CNC(=O)c1ccccc1Nc1nc(Nc2ccc3c(c2OC)CCC[C@H](N2CCN(CCO)CC2)C3)ncc1Cl [CEP-37440] . Reported concentration at 2 h?
Result block: 4740

###

Measured half-life values are reported for all entries that follow.
protocol summary: Half life in cynomolgus monkey liver microsomes by LC/MS/MS analysis
Assay type: ADME, Macaca fascicularis
Numbers only here, please. The scale is min.

Previously resolved entries follow.
| compound | half-life (min) |
| --- | --- |
| COc1c(Nc2ncc(Cl)c(N[C@H]3[C@@H](C(N)=O)[C@@H]4C=C[C@H]3C4)n2)ccc2c1CCCC(N1CCN(C)CC1)C2 (single isomer, unassigned) | 7 |
| COc1c(Nc2ncc(Cl)c(N[C@H]3[C@@H](C(N)=O)[C@@H]4C=C[C@H]3C4)n2)ccc2c1CC[C@@H](N1CCOCC1)CC2 | 17 |
| CNC(=O)c1ccccc1Nc1nc(Nc2ccc3c(c2OC)CCC[C@H](N2CCN(CCO)CC2)C3)ncc1Cl [CEP-37440] | 21 |

Query block: For COc1c(Nc2ncc(Cl)c(Nc3ccccc3N(C)S(C)(=O)=O)n2)ccc2c1CCCC(N1CCN(CCO)CC1)C2 (racemic) , what is its reported half-life?
Result block: 8

Query block: Consider the compound shown here: "CNC(=O)c1ccccc1Nc1nc(Nc2ccc3c(c2OC)CCC[C@@H](N2CCN(CCO)CC2)C3)ncc1Cl" What is its recorded half-life?
Result block: 24

Query block: Recorded half-life of "COc1c(Nc2ncc(Cl)c(N[C@H]3[C@@H](C(N)=O)[C@@H]4C=C[C@H]3C4)n2)ccc2c1CCC[C@H](N1CCN(C)CC1)C2" , please.
Result block: 9

###

study target: UniProt:P06213
Sequence (P06213 28-758 limits assumed): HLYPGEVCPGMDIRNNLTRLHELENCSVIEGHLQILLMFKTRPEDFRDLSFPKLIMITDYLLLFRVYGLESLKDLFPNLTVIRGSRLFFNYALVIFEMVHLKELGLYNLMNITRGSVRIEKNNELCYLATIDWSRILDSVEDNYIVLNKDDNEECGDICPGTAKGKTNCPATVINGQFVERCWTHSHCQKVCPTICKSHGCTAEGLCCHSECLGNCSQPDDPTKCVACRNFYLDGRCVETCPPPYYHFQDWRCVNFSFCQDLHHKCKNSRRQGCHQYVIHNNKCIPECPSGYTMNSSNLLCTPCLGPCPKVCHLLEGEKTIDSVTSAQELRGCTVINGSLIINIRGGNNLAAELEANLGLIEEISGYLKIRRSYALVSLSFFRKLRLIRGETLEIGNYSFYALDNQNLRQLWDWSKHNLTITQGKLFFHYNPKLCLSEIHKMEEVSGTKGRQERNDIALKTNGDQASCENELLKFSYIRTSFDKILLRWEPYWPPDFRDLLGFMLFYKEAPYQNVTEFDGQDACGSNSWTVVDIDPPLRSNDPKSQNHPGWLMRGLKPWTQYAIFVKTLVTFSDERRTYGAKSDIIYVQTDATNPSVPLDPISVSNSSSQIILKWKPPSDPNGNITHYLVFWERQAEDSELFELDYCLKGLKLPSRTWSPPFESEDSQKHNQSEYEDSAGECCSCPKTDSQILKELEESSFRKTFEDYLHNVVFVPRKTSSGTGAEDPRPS
Sequence (P06213 763-1382 limits assumed): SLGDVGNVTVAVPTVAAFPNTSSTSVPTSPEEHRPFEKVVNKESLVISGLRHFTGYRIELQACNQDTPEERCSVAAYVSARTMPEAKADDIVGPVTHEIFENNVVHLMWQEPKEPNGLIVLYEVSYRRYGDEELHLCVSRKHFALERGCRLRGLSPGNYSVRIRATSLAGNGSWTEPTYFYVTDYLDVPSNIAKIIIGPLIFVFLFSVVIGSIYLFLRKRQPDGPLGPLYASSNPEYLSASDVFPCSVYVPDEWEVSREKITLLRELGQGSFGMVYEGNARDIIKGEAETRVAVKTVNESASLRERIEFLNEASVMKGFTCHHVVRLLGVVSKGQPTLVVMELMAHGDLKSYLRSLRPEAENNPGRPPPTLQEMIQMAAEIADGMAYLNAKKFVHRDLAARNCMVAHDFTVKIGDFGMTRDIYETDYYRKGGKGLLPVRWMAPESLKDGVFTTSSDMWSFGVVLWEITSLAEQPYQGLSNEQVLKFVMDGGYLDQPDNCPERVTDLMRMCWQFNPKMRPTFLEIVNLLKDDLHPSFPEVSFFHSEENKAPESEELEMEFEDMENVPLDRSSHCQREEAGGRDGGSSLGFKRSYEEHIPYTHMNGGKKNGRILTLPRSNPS
outcome measure: IC50

Query block: Provide the documented IC50 with UniProt:P06213 as the system for "COc1c(Nc2ncc(Cl)c(N[C@H]3[C@@H](C(N)=O)[C@@H]4C=C[C@H]3C4)n2)ccc2c1CC[C@@H](N1CCOCC1)CC2"
Result block: > 10 µM

###

protocol summary: Clearance in Sprague-Dawley rat at 1 mg/kg, iv by LC/MS/MS analysis
Format: ADME, organism-based
condition notes: in vivo
outcome measure: clearance

Query block: Reported clearance for "CNC(=O)c1ccccc1Nc1nc(Nc2ccc3c(c2OC)CCC[C@H](N2CCN(CCO)CC2)C3)ncc1Cl" : what is it?
Result block: 3 to 4 mL/min/kg

###

protocol summary: AUC (0 to infinity) in Sprague-Dawley rat at 5 mg/kg, po by LC/MS/MS analysis
Format: ADME, organism-based
Set-up: dose 5 mg/kg, time infinity, route oral
condition notes: in vivo
Here, each record is paired with measured AUC(0-inf) data.
Kindly provide the numeric value in ng·h/mL only, without the unit symbol.

| compound | AUC(0-inf) / ng·h/mL |
| --- | --- |
| COc1c(Nc2ncc(Cl)c(N[C@H]3[C@@H](C(N)=O)[C@@H]4C=C[C@H]3C4)n2)ccc2c1CCC[C@H](N1CCN(C)CC1)C2 | 4400 |
| COc1c(Nc2ncc(Cl)c(N[C@H]3[C@@H](C(N)=O)[C@@H]4C=C[C@H]3C4)n2)ccc2c1CCCC(N1CCN(C)CC1)C2 (single isomer, unassigned) | 5530 |
| CNC(=O)c1ccccc1Nc1nc(Nc2ccc3c(c2OC)CCC[C@@H](N2CCN(CCO)CC2)C3)ncc1Cl | 1200 |
| CNC(=O)c1ccccc1Nc1nc(Nc2ccc3c(c2OC)CCC[C@H](N2CCN(CCO)CC2)C3)ncc1Cl [CEP-37440] | 8360 |

Now, please, on to the next compound.
Query block: Any idea what AUC(0-inf) was measured for "COc1c(Nc2ncc(Cl)c(N[C@H]3[C@@H](C(N)=O)[C@@H]4C=C[C@H]3C4)n2)ccc2c1CC[C@@H](N1CCOCC1)CC2" ?
Result block: 1200

###

protocol summary: AUC (0 to infinity) in Sprague-Dawley rat at 1 mg/kg, iv by LC/MS/MS analysis
Type: ADME, organism-based
Design: dose 1 mg/kg, time infinity, route intravenous
condition notes: in vivo
outcome measure: AUC(0-inf) (ng·h/mL)
Numbers only here, please. The scale is ng·h/mL.

Query block: # query: AUC(0-inf) of entry "CNC(=O)c1ccccc1Nc1nc(Nc2ccc3c(c2OC)CCC[C@H](N2CCN(CCO)CC2)C3)ncc1Cl"
Result block: 4000

###

protocol summary: AUC (0 to infinity) in CD-1 mouse at 10 mg/kg, po by LC/MS/MS analysis
Assay type: ADME, organism-based
Set-up: dose 10 mg/kg, time infinity, route oral
condition notes: in vivo
outcome measure: AUC(0-inf) (ng·h/mL)
Write the answer as a number in ng·h/mL, unit excluded.

Query block: What AUC(0-inf) value was documented for this compound, "CNC(=O)c1ccccc1Nc1nc(Nc2ccc3c(c2OC)CCC[C@H](N2CCN(CCO)CC2)C3)ncc1Cl" ?
Result block: 16400

###

protocol summary: Cmax in Sprague-Dawley rat plasma at 30 mg/kg, po by LC/MS/MS analysis
Type: ADME, organism-based
Parameters: dose 30 mg/kg, route oral
outcome measure: Cmax (ng/g)
Report only the number, with the unit ng/g understood.

Query block: Value lookup for Cmax; key = "CNC(=O)c1ccccc1Nc1nc(Nc2ccc3c(c2OC)CCC[C@H](N2CCN(CCO)CC2)C3)ncc1Cl"
Result block: 2120

###

protocol summary: Drug level in plasma of FAK expressing human CWR22 cells xenografted Nu/Nu mouse at 55 mg/kg, po administered as single dose measured at 12 hrs by LC-MS/MS analysis
Type: ADME, organism-based
outcome measure: concentration at 12 h (ng/mL)
Reply numerically in ng/mL, unit not repeated.

Query block: Give the measured concentration at 12 h of "CNC(=O)c1ccccc1Nc1nc(Nc2ccc3c(c2OC)CCC[C@H](N2CCN(CCO)CC2)C3)ncc1Cl" .
Result block: 541

###

protocol summary: Drug level in plasma of NPM-ALK expressing human SUP-M2 cells xenografted mouse at 30 mg/kg, po administered as single dose measured at 6 hrs by LC-MS/MS analysis
Format: ADME, organism-based
outcome measure: concentration at 6 h (ng/mL)
Express the result in ng/mL but write the number alone.

Query block: Entry CNC(=O)c1ccccc1Nc1nc(Nc2ccc3c(c2OC)CCC[C@H](N2CCN(CCO)CC2)C3)ncc1Cl [CEP-37440] : reported concentration at 6 h = ?
Result block: 3360

###

protocol summary: Half life in human liver microsomes by LC/MS/MS analysis
Format: ADME
Measured half-life, listed per entry for reference.
Provide only the numeric value, understood in min.

Take a look at these entries with their results.
| compound | test value |
| --- | --- |
| COc1c(Nc2ncc(Cl)c(Nc3ccccc3-n3cccn3)n2)ccc2c1CCCC(N1CCN(CCO)CC1)C2 (racemic) | 40 |
| COc1c(Nc2ncc(Cl)c(N[C@H]3[C@@H](C(N)=O)[C@@H]4C=C[C@H]3C4)n2)ccc2c1CCCC(N1CCN(C)CC1)C2 (single isomer, unassigned) | 11 |
| COCCNC1CCCc2c(ccc(Nc3ncc(Cl)c(N[C@H]4[C@@H](C(N)=O)[C@@H]5C=C[C@H]4C5)n3)c2OC)C1 (some centres not stated) | 15 |
| COc1c(Nc2ncc(Cl)c(N[C@H]3[C@@H](C(N)=O)[C@@H]4C=C[C@H]3C4)n2)ccc2c1CCC[C@H](N1CCOCC1)C2 | 6 |
| COc1c(Nc2ncc(Cl)c(Nc3ccccc3N3CCCS3(=O)=O)n2)ccc2c1CCCC(N1CCN(CCO)CC1)C2 (racemic) | 16 |

Proceeding to the next compound to report its half-life.
Query block: I would be grateful if you could share the reported half-life for "COc1c(Nc2ncc(Cl)c(N[C@H]3[C@@H](C(N)=O)[C@@H]4C=C[C@H]3C4)n2)ccc2c1CCC[C@@H](N1CCOCC1)C2" .
Result block: 5

Values were extracted from ChEMBL document CHEMBL3856231.
